System: MYC
Method description: 3' UTR reporter interaction score (median-centred robust z-score of log2 firefly/Renilla activity); higher = less repression of the 3' UTR reporter
Condition description: HEK293T; 48 h
Classes by 3' UTR reporter interaction score: Low = under -0.2, Medium = from -0.2 up to 0.5, High = 0.5 and over

Item sequence: UAUUGCACUUGUCCCGGCCUG
Label value: High

Item sequence: AUUCUGCAUUUUUAGCAAGU
Label value: High

Item sequence: UCUACAAAGGGAAGCCCUUUCUG
Label value: Medium

Item sequence: UGUAAACAUCCCCGACUGGAAG
Label value: Low

Item sequence: UGAGAACUGAAUUCCAUAGGCU
Label value: Medium

Item sequence: UGAGGUAGUAGGUUGUAUGGUU
Label value: Low

Item sequence: UCUACAGUGCACGUGUCU
Label value: Low

Item sequence: UUGCAUAUGUAGGAUGUCCCAU
Label value: Medium

Item sequence: UAACACUGUCUGGUAACGAUGU
Label value: Low

Item sequence: AUGUAUGUGUGCAUGUGCAUG
Label value: Low

Item sequence: UCAGUCUCAUCUGCAAAGAAG
Label value: High

Item sequence: CUCCAGAGGGAUGCACUUUCU
Label value: High

Item sequence: UAGUGCAAUAUUGCUUAUAGGGUUU
Label value: Medium

Item sequence: AUCACAUUGCCAGGGAUUACC
Label value: Medium

Item sequence: ACUUGGGCACUGAAACAAUGUCC
Label value: Medium

Item sequence: GCGACCCAUACUUGGUUUCAG
Label value: Low

Item sequence: UACAGUACUGUGAUAACUGAAG
Label value: Medium

Item sequence: UUCCCUUUGUCAUCCUUCGCCU
Label value: Medium

Item sequence: CUGAAGUGAUGUGUAACUGAUCAG
Label value: Medium

Item sequence: AUCAUAGAGGAAAAUCCAUGUU
Label value: Low

Item sequence: UCUCACACAGAAAUCGCACCCGUC
Label value: Low

Item sequence: AAACCGUUACCAUUACUGAGUUU
Label value: Low

Item sequence: GUGCAUUGCUGUUGCAUUGCA
Label value: Low

Item sequence: AAAGACAUAGGAUAGAGUCACCUC
Label value: Medium

Item sequence: CGCAUCCCCUAGGGCAUUGGUGU
Label value: Medium

Item sequence: UCUGCUCAUACCCCAUGGUUUCU
Label value: High

Item sequence: UAUUGCACAUUACUAAGUUGC
Label value: High

Item sequence: UUGUGUCAAUAUGCGAUGAUGU
Label value: High

Item sequence: UAGGUAGUUUCAUGUUGUUGG
Label value: Low

Item sequence: AAACAAACAUGGUGCACUUCUUU
Label value: High

Item sequence: UGUCACUCGGCUCGGCCCACUAC
Label value: Medium

Item sequence: AUAAGACGAGCAAAAAGCUUGU
Label value: Low

Item sequence: AAUAUAACACAGAUGGCCUGU
Label value: High

Item sequence: GACCUGGACAUGUUUGUGCCCAGU
Label value: Medium

Item sequence: ACUCCAUUUGUUUUGAUGAUGGA
Label value: Medium

Item sequence: AACGCGCUUCCCUAUAGAGGG
Label value: Medium

Item sequence: UGAGGUAGUAGAUUGUAUAGUU
Label value: Low

---

The following sequences are listed with their measured 3' UTR reporter interaction score values.
Tested on: BRCA2
Method description: 3' UTR reporter interaction score (median-centred robust z-score of log2 firefly/Renilla activity); higher = less repression of the 3' UTR reporter
Condition description: HEK293T; 48 h

Item sequence: UGGCAGUGUAUUGUUAGCUGGU
3' UTR reporter interaction score: 0.888
//
Item sequence: AAAGCGCUUCUCUUUAGAGGA
3' UTR reporter interaction score: -0.521
//
Item sequence: AAUUGCACUUUAGCAAUGGUGA
3' UTR reporter interaction score: 1.07
//
Item sequence: UAGCACCAUUUGAAAUCAGUGUU
3' UTR reporter interaction score: 0.947
//
Item sequence: UUUCCUAUGCAUAUACUUCUUU
3' UTR reporter interaction score: 0.202
//
Item sequence: AGGAAGCCCUGGAGGGGCUGGAGGU
3' UTR reporter interaction score: -1.21
//
Item sequence: UCAGAACAAAUGCCGGUUCCCAGA
3' UTR reporter interaction score: -0.146
//
Item sequence: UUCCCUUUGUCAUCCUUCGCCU
3' UTR reporter interaction score: 0.539
//
Item sequence: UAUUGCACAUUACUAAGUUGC
3' UTR reporter interaction score: 0.064
//
Item sequence: CAGUGCAAUAGUAUUGUCAAAGC
3' UTR reporter interaction score: 0.327
//
Item sequence: CCCAGUGUUUAGACUAUCUGUUC
3' UTR reporter interaction score: 0.494
//
Item sequence: UGGAGAGAAAGGCAGUUC
3' UTR reporter interaction score: -0.859
//
Item sequence: UUCAAGUAAUUCAGGAUAGGUU
3' UTR reporter interaction score: 0.455
//
Item sequence: CAGUGCAAUGAUGAAAGGGCAU
3' UTR reporter interaction score: -0.463
//
Item sequence: UAUUGCACUCGUCCCGGCCUC
3' UTR reporter interaction score: 0.27

---

Tested on: MYB
Method description: 3' UTR reporter interaction score (median-centred robust z-score of log2 firefly/Renilla activity); higher = less repression of the 3' UTR reporter
Condition description: HEK293T; 48 h
The following sequences are listed with their measured 3' UTR reporter interaction score values.

Item sequence: UGAUUGGUACGUCUGUGGGUAGA
Experimental target: MYB
3' UTR reporter interaction score: 1.17

Item sequence: UUUAACAUGGGGGUACCUGCUG
Experimental target: MYB
3' UTR reporter interaction score: -1.1

Item sequence: UGUAAACAUCCUCGACUGGAAG
Experimental target: MYB
3' UTR reporter interaction score: 0.498

Item sequence: CUUUCAGUCGGAUGUUUACAGC
Experimental target: MYB
3' UTR reporter interaction score: 0.713

Item sequence: AGCUCGGUCUGAGGCCCCUCAG
Experimental target: MYB
3' UTR reporter interaction score: 0.304

Item sequence: CAAAGAGGAAGGUCCCAUUAC
Experimental target: MYB
3' UTR reporter interaction score: 0.328

Item sequence: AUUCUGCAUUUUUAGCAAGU
Experimental target: MYB
3' UTR reporter interaction score: 1.56

Item sequence: AGGCACGGUGUCAGCAGGC
Experimental target: MYB
3' UTR reporter interaction score: 0.171

Item sequence: AGAUCAGAAGGUGAUUGUGGCU
Experimental target: MYB
3' UTR reporter interaction score: -2.02

Item sequence: ACUUGUAUGCUAGCUCAGGUAG
Experimental target: MYB
3' UTR reporter interaction score: -0.993

Item sequence: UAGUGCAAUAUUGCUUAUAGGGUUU
Experimental target: MYB
3' UTR reporter interaction score: -2.42

Item sequence: CACACACUGCAAUUACUUUUGC
Experimental target: MYB
3' UTR reporter interaction score: -0.132

Item sequence: UAUACAAGGGCAAGCUCUCUGU
Experimental target: MYB
3' UTR reporter interaction score: 0.159

Item sequence: UUGCAUAGUCACAAAAGUGA
Experimental target: MYB
3' UTR reporter interaction score: -1.85

Item sequence: AGUAUUCUGUACCAGGGAAGGU
Experimental target: MYB
3' UTR reporter interaction score: -0.25

Item sequence: UGGUGGGCCGCAGAACAUGUGC
Experimental target: MYB
3' UTR reporter interaction score: -0.29

Item sequence: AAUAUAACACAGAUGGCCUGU
Experimental target: MYB
3' UTR reporter interaction score: -0.573

Item sequence: CAAAGAAUUCUCCUUUUGGGCUU
Experimental target: MYB
3' UTR reporter interaction score: 0.952

Item sequence: UGGAAUGUAAAGAAGUAUGUA
Experimental target: MYB
3' UTR reporter interaction score: 0.679

Item sequence: UGAGGUAGUAGGUUGUAUAGUU
Experimental target: MYB
3' UTR reporter interaction score: 0.376

Item sequence: AGUUAAUGAAUCCUGGAAAGU
Experimental target: MYB
3' UTR reporter interaction score: 0.47

Item sequence: UAAUCUCAGCUGGCAACUGUG
Experimental target: MYB
3' UTR reporter interaction score: -0.952

Item sequence: UAGGUUAUCCGUGUUGCCUUCG
Experimental target: MYB
3' UTR reporter interaction score: 1.02

Item sequence: UGAGCUGCUGUACCAAAAU
Experimental target: MYB
3' UTR reporter interaction score: -0.26

Item sequence: UUCAACGGGUAUUUAUUGAGCA
Experimental target: MYB
3' UTR reporter interaction score: -0.5

Item sequence: AGACUUCCCAUUUGAAGGUGGC
Experimental target: MYB
3' UTR reporter interaction score: 0.287

Item sequence: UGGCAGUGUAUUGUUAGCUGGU
Experimental target: MYB
3' UTR reporter interaction score: -4.53

Item sequence: UGGAAUGUAAGGAAGUGUGUGG
Experimental target: MYB
3' UTR reporter interaction score: -0.696

Item sequence: UGGUUUACCGUCCCACAUACAU
Experimental target: MYB
3' UTR reporter interaction score: 0.643

Item sequence: UUUCCAUAGGUGAUGAGUCAC
Experimental target: MYB
3' UTR reporter interaction score: 1.55

Item sequence: CAAAGUUUAAGAUCCUUGAAGU
Experimental target: MYB
3' UTR reporter interaction score: 0.577

Item sequence: UACAGUAGUCUGCACAUUGGUU
Experimental target: MYB
3' UTR reporter interaction score: -0.118

Item sequence: GUCCAGUUUUCCCAGGAAUCCCUU
Experimental target: MYB
3' UTR reporter interaction score: 0.98

Sourced from the supplement of paper PMC5844555
